Reference for the values: patent US20230263822A1

Experiment: Hematology assays in cynomolgus monkeys (Example 46)
Assay type: in vivo
Conditions: Day 55
Strand notation (5' to 3'): a small letter for the sugar, then the base; units joined by * are phosphorothioate-linked, units joined directly phosphodiester-linked; [ ] holds rarer units or linkages, { } end groups; capitals alone tell only the bases. e = 2'-O-(2-methoxyethyl) (MOE); [5mC] = 5-methylcytosine; d = 2'-deoxy (DNA)
measured parameter: WBC count

• ISIS 449707: 3-8-3, 4-8-4, 2-10-2, 3-10-3 or 4-10-4 MOE microwalk gapmer (Table 46) (antisense e[5mC]*eA*e[5mC]*eA*dG*dT*dT*dT*d[5mC]*dT*dG*dG*e[5mC]*eA*eG*eG) = 8000 µL⁻¹
• ISIS 449709: 3-8-3, 4-8-4, 2-10-2, 3-10-3 or 4-10-4 MOE microwalk gapmer (Table 46) (antisense eG*e[5mC]*eA*e[5mC]*dA*dG*dT*dT*dT*d[5mC]*dT*dG*dG*d[5mC]*eA*eG*eG*e[5mC]) = 10000 µL⁻¹
